Test system: Ocular melanoma VUP
experimentDescription: Cytotoxicity on ocular melanoma VUP
Type: cell-based, human
measurementName: IC50

Enquiry: For the record N.N.O=C([O-])C1(C(=O)[O-])CCC1.[Pt+2] , what value of IC50 is listed for Ocular melanoma VUP?
Return: 95 µM
